Catalogue of binders with associated Kd
# System under test: T1, cynomolgus serum albumin (cynomolgus)
# T1 construct: also called CSA; Cyano
# T1 sequence (A2V9Z4 25-608): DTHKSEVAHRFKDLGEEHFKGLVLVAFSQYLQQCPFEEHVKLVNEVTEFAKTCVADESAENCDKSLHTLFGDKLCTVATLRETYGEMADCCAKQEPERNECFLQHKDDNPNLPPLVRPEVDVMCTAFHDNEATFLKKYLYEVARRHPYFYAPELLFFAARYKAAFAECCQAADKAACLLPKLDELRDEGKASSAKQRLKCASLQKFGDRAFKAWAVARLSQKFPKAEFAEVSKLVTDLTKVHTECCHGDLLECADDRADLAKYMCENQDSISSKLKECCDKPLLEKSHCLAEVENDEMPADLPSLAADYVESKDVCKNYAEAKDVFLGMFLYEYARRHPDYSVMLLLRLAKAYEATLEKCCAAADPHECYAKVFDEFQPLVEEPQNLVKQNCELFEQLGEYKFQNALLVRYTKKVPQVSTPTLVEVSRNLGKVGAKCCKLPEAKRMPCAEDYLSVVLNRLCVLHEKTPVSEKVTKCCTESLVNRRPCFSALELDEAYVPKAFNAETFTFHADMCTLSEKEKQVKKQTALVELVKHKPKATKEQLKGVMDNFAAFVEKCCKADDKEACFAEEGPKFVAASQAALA
# Measurement protocol: SPR, CSA on chip, pH 7.4
Property label: Kd (nM)

>>> reported_value("BA11-oxime-fluorescein (VNAR, C-terminal aminoxy joined by oxime to benzaldehyde-peg-fluorescein) VNAR: TRVDQSPSSLSASVGDRVTITCVLTDTSYPLYSTYWYRKNPGSSNKEQISISGRYSESVNKGTKSFTLTISSLQPEDSATYYCRAMSTNIWTGDGAGTKVEIK")
1.75
>>> reported_value("BA11-cys-maleimide-peg-fluorescein (VNAR, C-terminal cysteine joined to maleimide-peg-fluorescein, also called BA11-cys-mal-Fl) VNAR: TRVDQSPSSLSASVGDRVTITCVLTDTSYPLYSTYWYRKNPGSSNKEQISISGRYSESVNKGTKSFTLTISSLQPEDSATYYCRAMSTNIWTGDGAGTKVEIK")
3.68
>>> reported_value("BA11 C-terminal cysteine derivative (VNAR, additional C-terminal cysteine from cysteine cleavage of the intein fusion, also called BA11-cys) VNAR: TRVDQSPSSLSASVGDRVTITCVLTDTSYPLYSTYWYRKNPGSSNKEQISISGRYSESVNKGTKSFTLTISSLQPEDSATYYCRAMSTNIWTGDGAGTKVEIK")
2.1
>>> reported_value("BA11 humanised VNAR (VNAR) VNAR: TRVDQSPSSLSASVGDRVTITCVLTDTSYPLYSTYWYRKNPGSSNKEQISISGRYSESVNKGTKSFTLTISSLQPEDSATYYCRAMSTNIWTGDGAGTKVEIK")
3.36
